# credit: patent US8802674B2

- Target of assay: LRRK2 (Homo sapiens (Human), UniProt Q5S007, G2019S)
- Sequence (Q5S007 970-2527 G2019S limits assumed): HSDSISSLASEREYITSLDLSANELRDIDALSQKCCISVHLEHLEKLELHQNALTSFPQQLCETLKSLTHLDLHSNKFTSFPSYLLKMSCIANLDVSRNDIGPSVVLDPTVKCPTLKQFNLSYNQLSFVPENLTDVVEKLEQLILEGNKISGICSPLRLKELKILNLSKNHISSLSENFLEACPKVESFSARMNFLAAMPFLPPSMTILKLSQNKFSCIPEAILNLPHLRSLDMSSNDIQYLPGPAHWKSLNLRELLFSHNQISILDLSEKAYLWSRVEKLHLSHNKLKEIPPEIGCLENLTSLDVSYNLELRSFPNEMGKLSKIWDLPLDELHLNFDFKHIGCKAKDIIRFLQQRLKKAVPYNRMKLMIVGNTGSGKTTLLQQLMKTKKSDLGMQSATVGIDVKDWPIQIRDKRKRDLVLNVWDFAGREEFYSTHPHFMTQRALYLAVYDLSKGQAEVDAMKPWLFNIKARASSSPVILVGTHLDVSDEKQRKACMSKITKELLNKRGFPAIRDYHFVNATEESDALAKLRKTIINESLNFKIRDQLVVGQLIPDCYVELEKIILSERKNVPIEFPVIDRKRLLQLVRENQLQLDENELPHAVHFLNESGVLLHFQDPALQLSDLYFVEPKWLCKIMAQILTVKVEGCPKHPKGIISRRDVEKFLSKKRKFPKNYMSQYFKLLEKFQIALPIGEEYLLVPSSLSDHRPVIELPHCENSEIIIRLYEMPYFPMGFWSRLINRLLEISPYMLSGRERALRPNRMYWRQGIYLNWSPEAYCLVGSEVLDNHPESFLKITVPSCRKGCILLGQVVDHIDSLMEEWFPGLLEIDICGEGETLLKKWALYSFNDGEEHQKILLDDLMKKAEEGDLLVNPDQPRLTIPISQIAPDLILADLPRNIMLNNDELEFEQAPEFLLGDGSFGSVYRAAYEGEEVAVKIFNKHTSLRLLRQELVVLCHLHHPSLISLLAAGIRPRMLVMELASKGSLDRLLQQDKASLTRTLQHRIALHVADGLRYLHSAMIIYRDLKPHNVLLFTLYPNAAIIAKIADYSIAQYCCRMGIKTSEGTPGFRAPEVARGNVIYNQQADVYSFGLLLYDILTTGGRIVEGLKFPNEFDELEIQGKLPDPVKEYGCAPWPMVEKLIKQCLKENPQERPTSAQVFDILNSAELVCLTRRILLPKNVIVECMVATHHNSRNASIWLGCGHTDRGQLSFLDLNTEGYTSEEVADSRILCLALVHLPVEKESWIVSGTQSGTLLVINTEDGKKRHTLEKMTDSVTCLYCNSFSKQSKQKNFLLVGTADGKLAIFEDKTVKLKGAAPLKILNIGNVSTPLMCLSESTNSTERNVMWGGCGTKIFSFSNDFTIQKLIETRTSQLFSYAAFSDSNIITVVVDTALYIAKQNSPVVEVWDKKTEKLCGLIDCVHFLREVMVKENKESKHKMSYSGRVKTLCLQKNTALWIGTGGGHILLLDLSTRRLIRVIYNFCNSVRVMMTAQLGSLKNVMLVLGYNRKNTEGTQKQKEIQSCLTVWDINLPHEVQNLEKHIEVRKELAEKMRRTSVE
- Method description: In Vitro LRRK2 LabChip Assay
- Type: biochemical
- Experimental conditions: Table 4
- Procedure: In Vitro LRRK2 LabChip Assay This assay was used to determine a compound's potency in inhibiting activity of LRRK2 by determining, Kiapp, IC50, or percent inhibition values. […] The relative amounts of each were quantitated by fluorescence intensity. LRRK2 Ki was determined according to the equation: Y=V0*(1−((x+Ki*(1+S/Km)+Et)/(2*Et)−(((x+Ki*(1+S/Km)+Et)^2−(4*Et*x))^0.5)/(2*Et))). […] The plate was incubated for 2 hours in the dark. […] Results were read on the LabChip 3000. […]
Consider the following compounds; for each one, report its Ki.
Quick reminder: number only, in nM, skip the unit.

In plain terms, `[2H]C1([2H])OCCN(C(=O)c2ccc(Nc3ncc(Br)c(OC)n3)c(OC)c2)[C@@H]1C` has a documented Ki of 2

Record CNc1nc(Nc2cc(OC)c(C(=O)N3CCC(C#N)C3)cc2Cl)ncc1C(F)(F)F (stereo not shown) , field Ki: 2.9

# Ki (compound: `CNc1nc(Nc2ccc(C(=O)N3CC(F)(F)OC(F)(F)C3)cc2OC)ncc1C#N` ) is 20.8

The measured Ki associated with `CNc1nc(Nc2ccc(C(=O)N3CCC(F)(F)CC3)cc2OC)ncc1Cl` reads 3
